Tested on: LC3A/B puncta
Assay: Autophagy induction analysis (LC3A/B puncta immuno-staining)
Type: cell-based, human
Run conditions: Exp. 2, 20 μM, 20X objective, lysosomal LAMP co-staining, WI-38 cells
Quantity: Exp. 2, normalized change of nuclei numbers (Less cells)

- Smiles repr: "Cc1ccc(NC(=O)c2ccc([N+](=O)[O-])o2)cc1C"
  Reading: "Less cells, 73%,"
- Smiles repr: "O=C(Nc1cccc(Cl)c1)c1ccc([N+](=O)[O-])o1"
  Reading: "Less cells, 73%,"

----------
Documented K = Sestrin induction across a set of compounds
Tested on: FOXO3
Assay: qPCR analysis of FOXO3-regulated genes
Type: cell-based, human
Run conditions: score
// no unit string in output, number only

- Compound: "CCc1ccc(Oc2nc3ccccn3c(=O)c2/C=C(\\C#N)C(=O)NCc2ccco2)cc1"
  K = Sestrin induction: 0

Requested read-out: K = Sestrin induction. Entry: CC1C(=O)C(C)C(c2cc(Cl)ccc2O)NC1c1cc(Cl)ccc1O (stereo not shown)
0

Now consider O=C(Nc1nc(C23CC4CC(CC(C4)C2)C3)cs1)C(c1ccccc1)c1ccccc1 and answer again.
0

Now consider NS(=O)(=O)c1ccc(NC(=O)c2ccc([N+](=O)[O-])o2)cc1 and answer again.
1

Now consider Oc1ccccc1-c1noc(-c2ccccc2O)n1 and answer again.
1

Now consider O=C(Nc1cccc(Cl)c1)c1ccc([N+](=O)[O-])o1 and answer again.
1

Now consider CCCN1C/C(=C\c2ccc(F)cc2)C(=O)/C(=C/c2ccc(F)cc2)C1 and answer again.
0

Now consider CCCC(=O)Nc1ccc(-c2cn3cccc(C)c3n2)cc1 and answer again.
0

Now consider Nc1ccccc1S(=O)(=O)Nc1cccc2cccnc12 and answer again.
0

Now consider O=C(Nc1cccc(C(F)(F)F)c1)c1ccc([N+](=O)[O-])o1 and answer again.
0

----------
Test system: C. elegans
Assay: C. elegans lifespan assays (liquid and plate)
Type: in vivo, Caenorhabditis elegans
Run conditions: Caenorhabditis elegans, 60 μM, in liquid, wild type, with FuDR, 1.0 × 10^9 bacteria/ml; read-out: relative change of mean lifespan vs control, Trial 1
Quantity: ILS at 60 µM (%)
Give the quantity in %, number only.

Before answering, review these 10 worked examples.
- Molecule: "COc1cccc(/C=C2\\CN(C)C/C(=C\\c3cccc(OC)c3OC)C2=O)c1OC"
  Quantity: "ILS at 60 µM"
  Scale unit: "%"
  Reading: 36.2
- Molecule: "Cc1ccc(NC(=O)c2ccc([N+](=O)[O-])o2)cc1C"
  Quantity: "ILS at 60 µM"
  Scale unit: "%"
  Reading: 22.3
- Molecule: "Cc1cc(N)n(-c2ccccc2C(=O)O)n1"
  Quantity: "ILS at 60 µM"
  Scale unit: "%"
  Reading: 5.5
- Molecule: "O=C(Nc1cccc(Cl)c1)c1ccc([N+](=O)[O-])o1"
  Quantity: "ILS at 60 µM"
  Scale unit: "%"
  Reading: 18.2
- Molecule: "COc1ccc(C(=O)/C=C/c2ccccc2Br)c(OC)c1"
  Quantity: "ILS at 60 µM"
  Scale unit: "%"
  Reading: 8.1
- Molecule: "O=C(Nc1cccc(C(F)(F)F)c1)c1ccc([N+](=O)[O-])o1"
  Quantity: "ILS at 60 µM"
  Scale unit: "%"
  Reading: 17.4
- Molecule: "O=C(Nc1nc(C23CC4CC(CC(C4)C2)C3)cs1)C(c1ccccc1)c1ccccc1"
  Quantity: "ILS at 60 µM"
  Scale unit: "%"
  Reading: 5.9
- Molecule: "CC1C(=O)C(C)C(c2cc(Cl)ccc2O)NC1c1cc(Cl)ccc1O (stereo not shown)"
  Quantity: "ILS at 60 µM"
  Scale unit: "%"
  Reading: 28.3
- Molecule: "COc1ccc(C(=O)/C=C/c2ccc(F)cc2)c(OC)c1"
  Quantity: "ILS at 60 µM"
  Scale unit: "%"
  Reading: -21.4
- Molecule: "O=C(/C=C/c1cn(-c2ccccc2)nc1-c1cccnc1)c1ccccc1"
  Quantity: "ILS at 60 µM"
  Scale unit: "%"
  Reading: 3

Request body: readout ILS at 60 µM, system C. elegans, query Cc1ccc(S(=O)(=O)Nc2cccc3cccnc23)cc1 . Return the value.
13.7

Now consider Oc1ncnc2sc3c(c12)CCC3 and answer again.
13.7

Now consider COc1ccc(/C=C2\SC(=N)N(c3nccs3)C2=O)cc1 and answer again.
7.9

Now consider CCCN1C/C(=C\c2ccc(F)cc2)C(=O)/C(=C/c2ccc(F)cc2)C1 and answer again.
38

Now consider NS(=O)(=O)c1ccc(NC(=O)c2ccc([N+](=O)[O-])o2)cc1 and answer again.
-1.3

Now consider Cc1cc(C)c(C(=O)/C=C/c2ccccc2F)c(O)n1 and answer again.
22.1

Now consider O=C(NCc1cccnc1)/C(=C\c1ccc(Br)cc1)S(=O)(=O)c1ccccc1 and answer again.
1.3

Now consider N=C1S/C(=C\c2cn(-c3ccccc3)nc2-c2cccs2)C(=O)N1c1nccs1 and answer again.
20.5

Now consider O=C(NCc1cccnc1)/C(=C/c1ccc(-c2ccc(Cl)cc2)o1)S(=O)(=O)c1ccccc1 and answer again.
-29.1

Now consider [O-][n+]1onc2c3nsnc3c(Br)cc21 and answer again.
1.7

Now consider O=C(/C(=C/c1ccc(Cl)cc1)c1nc2ccccc2[nH]1)c1ccccc1 and answer again.
50.8

Now consider O=C(c1ccc([N+](=O)[O-])o1)N1CCc2ccccc21 and answer again.
32.7

Now consider O=C1NCCCc2cc(Cl)sc21 and answer again.
1.8

Now consider O=C(Nc1ccc(Cl)c(Cl)c1)c1ccc([N+](=O)[O-])o1 and answer again.
1.3

Now consider CCc1ccccc1NC(=O)c1ccc([N+](=O)[O-])o1 and answer again.
14.4

Now consider COC(=O)CCc1sc2c(c1[N+](=O)[O-])NC(=O)CCC2 and answer again.
18.8

Now consider COc1ccc(C(=O)/C=C/c2cccc(Cl)c2)c(OC)c1 and answer again.
-14.9

----------
Test system: phosphorylated γH2A.X and TP53BP1
Assay: DNA damage marker analysis (immuno-staining)
Run conditions: Homo sapiens, WI-38, 24 h, read-out: Experiment 2, TP53BP1-P DNA damage foci staining (no H2O2 stress treatment), at 10 uM
Documented activity at 10 µM across a set of compounds
Give the quantity in %, number only.

Before answering, review these 5 worked examples.
- Smiles repr: "CCCN1C/C(=C\\c2ccc(F)cc2)C(=O)/C(=C/c2ccc(F)cc2)C1"
  Scale unit: "%"
  activity at 10 µM: 48.3
- Smiles repr: "COc1ccc(C(=O)/C=C/c2cccc(Cl)c2)c(OC)c1"
  Scale unit: "%"
  activity at 10 µM: 179
- Smiles repr: "Cc1ccc(NC(=O)c2ccc([N+](=O)[O-])o2)cc1C"
  Scale unit: "%"
  activity at 10 µM: 460
- Smiles repr: "Cc1ccc(S(=O)(=O)Nc2cccc3cccnc23)cc1"
  Scale unit: "%"
  activity at 10 µM: 244
- Smiles repr: "N=C1S/C(=C\\c2cn(-c3ccccc3)nc2-c2cccs2)C(=O)N1c1nccs1"
  Scale unit: "%"
  activity at 10 µM: 290

Request body: readout activity at 10 µM, system phosphorylated γH2A.X and TP53BP1, query O=C(NCc1cccnc1)/C(=C\c1cccc(Oc2ccccc2)c1)S(=O)(=O)c1ccccc1 . Return the value.
363

Now consider Nc1ccccc1S(=O)(=O)Nc1cccc2cccnc12 and answer again.
254

Now consider NS(=O)(=O)c1ccc(NC(=O)c2ccc([N+](=O)[O-])o2)cc1 and answer again.
411

----------
Documented Q = Potential toxicity across a set of compounds
Tested on: WI-38 cells
Assay: Long-term effects on cell viability (5 days, ATP; morphology, PI imaging)
Type: cell-based
Run conditions: human, 5 days, 10 μM

Before answering, review these 4 worked examples.
- Smiles repr: "CCc1ccccc1NC(=O)c1ccc([N+](=O)[O-])o1"
  System tested: "WI-38 cells"
  Q = Potential toxicity: 0
- Smiles repr: "COc1ccc(C(=O)/C=C/c2cccc(Cl)c2)c(OC)c1"
  System tested: "WI-38 cells"
  Q = Potential toxicity: 0
- Smiles repr: "Oc1ncnc2sc3c(c12)CCC3"
  System tested: "WI-38 cells"
  Q = Potential toxicity: 0
- Smiles repr: "O=C(Nc1ccc(Cl)c(Cl)c1)c1ccc([N+](=O)[O-])o1"
  System tested: "WI-38 cells"
  Q = Potential toxicity: 0

Continue with the compound presented below.
Requested read-out: Q = Potential toxicity. Entry: O=C(NCc1cccnc1)/C(=C\c1ccc(Br)cc1)S(=O)(=O)c1ccccc1
1

----------
System: NRF2
Assay: qPCR analysis of NRF2-regulated genes
Format: cell-based, human
Run conditions: Homo sapiens, 24 h; Assay 12(o); at 10 uM, qPCR; read-out: Induction of NRF2-regulated genes: GSTM1 normalized fold-change
Quantity: fold induction at 10 µM
// no unit string in output, number only

Before answering, review these 5 worked examples.
- Smiles repr: "O=C(c1ccc([N+](=O)[O-])o1)N1CCc2ccccc21"
  fold induction at 10 µM: 1.31
- Smiles repr: "O=C(/C(=C/c1ccc(Cl)cc1)c1nc2ccccc2[nH]1)c1ccccc1"
  fold induction at 10 µM: 1.52
- Smiles repr: "O=C(NCc1cccnc1)/C(=C/c1ccc(-c2ccc(Cl)cc2)o1)S(=O)(=O)c1ccccc1"
  fold induction at 10 µM: 0.78
- Smiles repr: "O=C(CCCc1nnc2n3nc(-c4ccccc4)nc3c3ccccc3n12)N1CCOCC1"
  fold induction at 10 µM: 0.82
- Smiles repr: "NS(=O)(=O)c1ccc(NC(=O)c2ccc([N+](=O)[O-])o2)cc1"
  fold induction at 10 µM: 1.45

Requested read-out: fold induction at 10 µM. Entry: CCc1ccc(Oc2nc3ccccn3c(=O)c2/C=C(\C#N)C(=O)NCc2ccco2)cc1
1.27

Now consider Cc1cc(C)c(C(=O)/C=C/c2ccccc2F)c(O)n1 and answer again.
1.52

Now consider Oc1cc(-c2ccccc2)nc2c(-c3ccc(Cl)cc3)c(Cc3ccccc3)nn12 and answer again.
0.85

Now consider Oc1nc(-c2ccccn2)nc2c1Cc1cc(F)ccc1O2 and answer again.
1.24

Now consider COc1ccc(C(=O)/C=C/c2cccc(Cl)c2)c(OC)c1 and answer again.
1.63

Values compiled from patent US11413278B2.
